Reference for the values: the RNAGym collection of RNA variant scans (doi:10.1021/acssynbio.7b00057)

Listed below: aptazyme ON/OFF ratio values for each entry.
B1: Pistol ribozyme (parent)
chain: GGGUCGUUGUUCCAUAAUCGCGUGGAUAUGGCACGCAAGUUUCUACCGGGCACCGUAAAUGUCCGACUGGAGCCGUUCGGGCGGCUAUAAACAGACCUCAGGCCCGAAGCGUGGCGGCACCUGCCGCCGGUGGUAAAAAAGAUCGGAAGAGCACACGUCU

# Variants of: B1
# assay: aptazyme ON/OFF ratio, guanine; higher = stronger switching; co-transcriptional cleavage with and without guanine

G9U U10C U11A C12U C13A | 1.49
U8A G9C U10A U11C C12A | 1.21
U10C U11C C12A C13G | 1.17

## Task Fill in the blank: the reported aptazyme ON/OFF ratio of U7G U8C G9A U10G U11C C12U C13G is ____.
## Result 1.16

## Task What does the data say about its aptazyme ON/OFF ratio? Entry: U7C U10C U11G C12U
## Result 1.18

## Task What does the data say about its aptazyme ON/OFF ratio? Entry: U7C U8G G9U U10A U11A C12U C13U
## Result 1.25

## Task If you can, please state the reported aptazyme ON/OFF ratio value of U7G U8C G9A U10C U11G C13A .
## Result 1.16

## Task Look up aptazyme ON/OFF ratio: U7G U8C G9U U10A C13U
## Result 2.29

## Task Which value of aptazyme ON/OFF ratio has been reported for U8C G9A U11G C12G C13U in the records?
## Result 1.11

## Task Bench note: what aptazyme ON/OFF ratio did U7C U8A G9C U11G C12G C13G show?
## Result 1.07

## Task Can you share its aptazyme ON/OFF ratio? I mean this variant: U7A G9A
## Result 1.83

## Task What does the data say about its aptazyme ON/OFF ratio? Entry: U7A U8G G9A U10A U11G C12A
## Result 1.08

## Task Report aptazyme ON/OFF ratio for U8A G9C U11C C13G please.
## Result 1.04
